Below, each of the molecules is paired with its reported viability value.
Experiment: reversal of MRP1-mediated doxorubicin resistance, pilot screen, H69AR cells, doxorubicin co-treatment (AID 601)
Conditions: H69AR cells + 2 uM doxorubicin, CellTiter-Glo, 72 h; measured here: viability with 2 uM doxorubicin; at 10 µM; stronger effect = lower value
endpoint-label: viability (%)

Cc1cc(Oc2ccccc2)nc(-c2ccccc2)n1 : 91.2
COc1ccc(-c2nnc3ccc(SC(C(C)=O)C(C)=O)nn23)cc1OC : 78
Cc1ccc(-c2nnn(CC(=O)NC3CC4CCC3C4)n2)cc1 (stereo not given) : 88.2
Cc1ccc(N2CC(C(=O)N3CCN(C(=O)c4ccco4)CC3)CC2=O)cc1 (stereo not given) : 98.1
COCCCNC(=O)C1CCCN(C(=O)Nc2ccc(OC)cc2)C1 (stereo not given) : 83.6

###

Assay: 384-well plate pilot, post-Golgi transport modulator project, inhibition of yeast transport mutant growth (AID 636)
Conditions: absorbance 615 nm, about 18 h, stronger effect = higher value
The source made the active and inactive calls. Cut-off read from the data, not from the text of the source: active = inhibition above about 31%; inactive = the rest.
endpoint-label: inhibition

Cc1c[nH]c2cccc(OCC(O)CNC(C)(C)C)c12 (centres undefined) : -3.6% (inactive)
CCOC(=O)c1sc(NC(=O)CSc2nnc3c4ccccc4n(CC)c3n2)nc1C : 1.67% (inactive)
COc1ccc(CNc2nc(SCC(=O)NCc3ccco3)nc3ccccc23)cc1 : -3.6% (inactive)
COC(=O)c1sc(N)c(C(=O)OC)c1CSc1nc2sc3c(c2c(=O)n1C)CCC3 : -2.84% (inactive)

###

Test: 384-well plate pilot, post-Golgi transport modulator project, inhibition of yeast transport mutant growth (AID 636)
Settings: absorbance 615 nm, about 18 h, stronger effect = higher value
# inhibition per record follows
endpoint-label: inhibition (%)

COc1ccc(C(=O)Nc2cccc(-c3nc4ncccc4o3)c2C)cc1OC : 3.42
COc1ccc(-c2nn3c(-c4ccncc4)nnc3s2)cc1OC : -0.39
Cc1nc(SCC(=O)N2CCC(C(N)=O)CC2)n[nH]1 : -6.32
CCC(=O)Nc1ccc(Cl)c(NC(=O)C(C)C)c1 : -7.97
COc1ccc2cnn(-c3ccccc3)c(=O)c2c1OC : -1.71
COc1ccc(N2CCN(C(c3cccs3)c3nnnn3C3CCCC3)CC2)cc1 (stereo not drawn) : -3.25
COc1ccccc1N1CCN(Cc2nnnn2CCc2ccccc2)CC1 : 1.51
Cc1cc(C)cc(-n2nnc(C(=O)NCc3ccco3)c2N)c1 : -0.14
O=C1NC(Cc2c[nH]c3ccccc23)C(=O)N1CCOc1ccccc1 (stereo not drawn) : -2.76
CCc1nc2c(cnn2-c2ccc(Cl)cc2)c(=O)n1-c1ccc2c(c1)OCCO2 : 0.79
CCOC(=O)CNC(=O)CSc1ncnc2c1cnn2-c1ccccc1 : -4
COc1ccc(NC(=O)c2cc(C)on2)cc1OC : -5.87
COc1ccc(-c2cc3n(n2)CCc2nc4ccccc4n2-3)cc1 : -5.2
Cc1ccc(-n2nnnc2SCC(=O)c2cc(C)n(CC3CCCO3)c2C)cc1 (stereo not drawn) : -5.07
COc1ccc(OC(C)C(=O)N2CC(C)OC(C)C2)cc1 (stereo not drawn) : -5
Cn1c(/C(C#N)=C/Nc2ccccn2)nc2ccccc21 : 4.47
CCC(=O)/C=C1\Sc2ccc(OC)cc2N1CCO : -4.21
O=C(Nc1ccon1)c1csc2c1CCCC2 : -5.66
CCn1c(=O)cc(SCC(=O)N2CCOCC2)c2ccccc21 : -6.05
COc1ccc(C(=O)N(Cc2ccco2)C(C(=O)NC2CCCC2)c2ccc(O)cc2)cc1OC (stereo not drawn) : -1.32
COC(=O)c1ccc(CSc2nc3c(cnn3-c3ccc(F)cc3)c(=O)[nH]2)o1 : -2.19
COc1cc(NC(=O)C(C)Oc2ccccc2)c(C(=O)O)cc1OC (stereo not drawn) : -7.07
O=C(Nc1ccc2c(c1)OCCO2)c1ccco1 : 2.47
CS(=O)(=O)N1CCCC(C(=O)NCCCN2CCC(Cc3ccccc3)CC2)C1 (stereo not drawn) : 2.6
O=C(NCC(F)(F)F)N1CCOCC1 : -6.71
c1ccc2c(c1)[nH]c1c(N3CCC4(CC3)OCCO4)ncnc12 : -3.87
CCOC(=O)COc1ccc(C2NC(C(=O)O)CS2)cc1 (stereo not drawn) : -3.03
COCCN1Cc2cccc(C(=O)Nc3cccnc3)c2C1=O : -6.71

###

Test: reversal of MRP1-mediated doxorubicin resistance, pilot screen, H69AR cells, doxorubicin co-treatment (AID 601)
Conditions: H69AR cells + 2 uM doxorubicin, CellTiter-Glo, 72 h; measured here: viability with 2 uM doxorubicin; at 10 µM; stronger effect = lower value
Listed here are molecules together with their documented viability.
endpoint-label: viability (%)

Cc1cc(OC(=O)N2CCOCC2)cc(C)c1Cl : 84.9
COc1ccc(-c2noc(-c3cc(Cl)ccc3Cl)n2)cc1OC : 88.1
CN(C(=O)c1ccccn1)c1nnc(-c2ccncc2)s1 : 92.8
COc1cccc(-c2noc(-c3cccs3)n2)c1 : 111
Cc1noc(C)c1S(=O)(=O)NCCN1CCN(c2ccccc2)CC1 : 92.7
Fc1ccc(Cn2nnc(-c3ccc(CN4CCOCC4)cc3)n2)cc1 : 96.3

###

A collection of compounds and their measured inhibition
Test: growth suppression of yeast trafficking mutant, preliminary HTS, modulators of trafficking downstream of Golgi apparatus project, 1536-format plate, OD 615 nm (AID 637)
Settings: yeast transport mutant growth, absorbance 615 nm, 18 h; stronger effect = higher value
endpoint-label: inhibition (%)

O=C1CCCC(O)=C1C=Nc1ccc2c(c1)oc1ccccc12 : 1.11
O=C(OCCCN1CCCC1)C1(c2ccccc2)CCCC1 : -13.3
CN(C1CCS(=O)(=O)C1)S(=O)C12CC3CC(CC(C3)C1)C2 (stereo unspecified) : -5.08
Cn1cccc1C1NC(=O)c2c(sc3c2CCC(C(C)(C)C)C3)N1 (stereo unspecified) : 1.67
N[C@@H](Cc1ccccc1)c1nnc2sc(SCc3ccccc3)nn12 : 0.48
COc1ccc(OC)c(-c2nnc(SCC(=O)NC3CCCCC3)o2)c1 : -13.4
CCc1ccccc1NC(=O)C(C#N)Cc1cccnc1 (stereo unspecified) : -0.49
Cc1ccc(NC(=O)CCN2CCc3ccccc3C2)cc1 : -4.92
O=C(CCn1c(=O)sc2ccccc21)NC1=NCCS1 : -6.72
Nc1nnc(-c2cn(-c3ccccc3)nc2-c2ccccc2)o1 : -15.5
Cn1c(=O)c2c(ncn2CC(O)CNc2ccc(Cl)cc2)n(C)c1=O (stereo unspecified) : -5.71
CS(=O)(=O)N(Cc1nc2sc3c(c2c(=O)[nH]1)CCCC3)C1CCCCC1 : -0.49
CCCOc1cc(C)c(S(=O)(=O)N2CCN(C)CC2)cc1C : 5.41
COCCNC(=O)C(c1cccc(OC)c1)N(Cc1cccs1)C(=O)Cn1nnc2ccccc21 (stereo unspecified) : 1.48
Cc1ccccc1C1CC(c2ccccc2)Nc2ncnn21 (stereo unspecified) : -6.39
CC1=C(C(=O)OC2CCCCC2)C(c2cccnc2)n2ncnc2N1 (stereo unspecified) : -5.83

###

Assay: reversal of MRP1-mediated doxorubicin resistance, pilot screen, H69AR cells, doxorubicin co-treatment (AID 601)
Conditions: H69AR cells + 2 uM doxorubicin, CellTiter-Glo, 72 h; at 10 µM; stronger effect = higher value
endpoint-label: differential viability (reversal) (%)

COc1ccc(NC(=O)CSC2=C(C#N)C(c3ccco3)C3=C(CCCC3=O)N2)c(OC)c1 (configuration not stated) : 4.23
CC(=O)Oc1ccc(-c2ccc(C(=O)O)cc2)cc1 : 18.3
COc1ccc2nc(SCC(=O)NC(C)C)[nH]c2c1 : 4.97
COc1ccc(-c2cc(C(=O)NCCc3ccccc3)no2)cc1OC : 3.29
CCC1C(=O)n2nc(-c3ccccc3)cc2N=C1C (configuration not stated) : 8.73
CCCc1nnc(SCC(=O)N2CCOCC2)n1Cc1ccco1 : 15.3
CCn1c(SCC(=O)Nc2ccc(C(C)=O)cc2)nc2ccccc21 : -3.56
CCN(CC)S(=O)(=O)N1CCC(C(=O)NCC2COc3ccccc3O2)CC1 (configuration not stated) : -9.32
O=S(=O)(c1ccc2ccccc2c1)N(CC(O)CN1CCOCC1)c1ccccc1 (configuration not stated) : 19
CC(C)(C)n1nnnc1CN1CCC(NC(=O)NC2CCCCC2)CC1 : 15.1
c1cnc2c(SCc3ccc(-c4nnco4)cc3)cccc2c1 : 12.1
c1ccn2c(SCc3cn4ccsc4n3)nnc2c1 : 14
Nn1c(CSc2nc3ccccc3o2)nnc1CSc1nc2ccccc2o1 : 24.1
Cc1cccc(C)c1NC(=O)CS(=O)CC(=O)NC1CCCc2ccccc21 (configuration not stated) : -3.62
COCCNC(=O)CCc1nc(-c2ccccc2)no1 : 5.2
COc1cccc(N2C(=O)C(O)=C(C(C)=O)C2c2ccc(OC)c(OC)c2)c1 (configuration not stated) : 7.03
CCCNc1nc2c(c(=O)n(C)c(=O)n2C)n1Cc1cccc(C)c1 : -5.19
Cn1c(=O)c2c(nc(SCc3nn[nH]n3)n2Cc2ccccc2F)n(C)c1=O : -2.83
O=C(Nc1ccc(OC(=O)c2ccco2)cc1)c1ccco1 : -10.4
CNC(=O)c1ccc(N(Cc2ccccc2C)S(C)(=O)=O)cc1 : 0.93
CCS(=O)(=O)NCCc1cc2c(OC)ccc(OC)c2[nH]c1=O : 12.1
COc1ccc(S(=O)(=O)N2CCSC2c2ccccc2)cc1 (configuration not stated) : -13.8
